Could you please report measured ΔBW (body weight variation between day 0 and day 4) for the items listed next?
# Tested on: ob/ob mice
# method summary: In vivo ob/ob mice: glycaemia, triglyceridemia, insulinemia, body weight
# test parameters: expressed in % of rosiglitazone in the same study (= 100%); ob/ob mice, oral, 4 days; synthesised compounds 8.4 µMkg^−1, references 3 mgkg^−1
Answers are plain numbers, in %.

See these solved cases before continuing.
CN(CCOc1ccc(CC2SC(=O)NC2=O)cc1)c1ccccn1 (stereo not drawn) [rosi, Rosiglitazone, reference compound]: 100
CON=C(c1ccccc1)c1ccc2c(c1)sc(=O)n2CCOc1ccc(C[C@H](OCC(F)(F)F)C(=O)O)cc1 [Compound 44b]: −17

Query molecule follows.
Item: COc1ccc(OC(=O)N(CC(=O)O)Cc2ccc(OCCc3nc(-c4ccccc4)oc3C)cc2)cc1 [mura, Muraglitazar, reference compound] | ΔBW (body weight variation between day 0 and day 4): 206

----------
# Test system: ob/ob mice
# method summary: In vivo ob/ob mice: glycaemia, triglyceridemia, insulinemia, body weight;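 also: male ob/ob mice aged 10–12 weeks, given the compound once daily by oral gavage as a 1% hydroxyethylcellulose suspension, 8–12 animals per group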
# test parameters: expressed in % of rosiglitazone in the same study (= 100%); ob/ob mice, oral, 4 days; synthesised compounds 8.4 µMkg^−1, references 3 mgkg^−1
reported metric: ΔBW (body weight variation between day 0 and day 4) (%)
One number for each entry, in %.

CCO[C@@H](Cc1ccc(OCCn2c(=O)sc3cc(/C(=N/O)c4ccccc4)ccc32)cc1)C(=O)O [Compound 43a]: 113

I need ΔBW (body weight variation between day 0 and day 4) for every entry listed below, if you could help.
1. CCO[C@H](Cc1ccc(OCCn2c(=O)sc3cc(/C(=N/O)c4ccccc4)ccc32)cc1)C(=O)O [Compound 45a]
2. CCOC(Cc1ccc(OCCn2c(=O)sc3cc(/C(=N/O)c4ccccc4)ccc32)cc1)C(=O)O (stereo not shown) [Compound 39a]
3. CCOC(Cc1ccc(OCCn2c(=O)sc3cc(/C(=N/OC)c4ccccc4)ccc32)cc1)C(=O)O (stereo not shown) [Compound 40a]
4. O=C(O)C(Cc1ccc(OCCn2c(=O)sc3cc(C(=NO)c4ccccc4)ccc32)cc1)OCC(F)(F)F (mixture of isomers) [Compound 39b]
5. CCO[C@@H](Cc1ccc(OCCn2c(=O)sc3cc(/C(=N/OC)c4ccccc4)ccc32)cc1)C(=O)O [Compound 44a]

Resp:
1. 328
2. −10
3. 188
4. 75
5. 177

Item: CON=C(c1ccccc1)c1ccc2c(c1)sc(=O)n2CCOc1ccc(CC(OCC(F)(F)F)C(=O)O)cc1 (racemic) [Compound 40b] | ΔBW (body weight variation between day 0 and day 4): −70

----------
Could you please report measured absorption with CaCO2 cells (CaCo2 permeability) for the items listed next?
# System: CaCO2 cells
# method summary: CaCo2 cell absorption (membrane permeability model)
# Type: in vitro ADME
# test parameters: percentage of absorption

See these solved cases before continuing.
CCO[C@H](Cc1ccc(OCCn2c(=O)sc3cc(/C(=N/O)c4ccccc4)ccc32)cc1)C(=O)O [Compound 45a]: 31%
CCO[C@@H](Cc1ccc(OCCn2c(=O)sc3cc(C(=O)c4ccccc4)ccc32)cc1)C(=O)O [Compound 41a]: < 25%
CCOC(Cc1ccc(OCCn2c(=O)sc3cc(C(=O)c4ccccc4)ccc32)cc1)C(=O)O (stereo not shown) [Compound 32a]: < 25%

Query molecule follows.
Item: CCO[C@H](Cc1ccc(OCCn2c(=O)sc3cc(C(=O)c4ccccc4)ccc32)cc1)C(=O)O [Compound 42a] | absorption with CaCO2 cells (CaCo2 permeability): < 25%

----------
reported metric: melting point

See these solved cases before continuing.
CCOC(Cc1ccc(OCCn2c(=O)sc3cc(/C(=N/O)c4ccccc4)ccc32)cc1)C(=O)O (stereo not shown) [Compound 39a]: 84 to 85 °C
CON=C(c1ccccc1)c1ccc2c(c1)sc(=O)n2CCOc1ccc(CC(OCC(F)(F)F)C(=O)O)cc1 (racemic) [Compound 40b]: 56 to 57 °C
CCO[C@H](Cc1ccc(OCCn2c(=O)sc3cc(/C(=N/OC)c4ccccc4)ccc32)cc1)C(=O)O [Compound 46a]: 151 to 152 °C
CCO[C@@H](Cc1ccc(OCCn2c(=O)sc3cc(C(=O)c4ccccc4)ccc32)cc1)C(=O)O [Compound 41a]: 57 to 59 °C
CCOC(Cc1ccc(OCCN2C(=O)CSc3cc(C(=O)c4ccccc4)ccc32)cc1)C(=O)O (stereo not shown): 58 to 60 °C

I need melting point for every entry listed below, if you could help.
1. CCOC(Cc1ccc(OCCN2C(=O)CSc3ccc(C(=O)c4ccccc4)cc32)cc1)C(=O)O (stereo not shown)
2. CCOC(Cc1ccc(OCCN2C(=O)COc3ccc(C(=O)c4ccccc4)cc32)cc1)C(=O)O (stereo not shown)
3. CCO[C@H](Cc1ccc(OCCn2c(=O)sc3cc(C(=O)c4ccccc4)ccc32)cc1)C(=O)O [Compound 42a]
4. O=C(O)C(Cc1ccc(OCCn2c(=O)sc3cc(C(=NO)c4ccccc4)ccc32)cc1)OCC(F)(F)F (mixture of isomers) [Compound 39b]

Resp:
["52 to 54 °C", "47 to 49 °C", "57 to 59 °C", "55 to 56 °C"]

Item: CCOC(Cc1ccc(OCCN2C(=O)COc3cc(C(=O)c4ccccc4)ccc32)cc1)C(=O)O (stereo not shown) | melting point: 36 to 38 °C

----------
# assay target: human PPARα (Homo sapiens)
# Sequence (Q07869 239-466 limits assumed): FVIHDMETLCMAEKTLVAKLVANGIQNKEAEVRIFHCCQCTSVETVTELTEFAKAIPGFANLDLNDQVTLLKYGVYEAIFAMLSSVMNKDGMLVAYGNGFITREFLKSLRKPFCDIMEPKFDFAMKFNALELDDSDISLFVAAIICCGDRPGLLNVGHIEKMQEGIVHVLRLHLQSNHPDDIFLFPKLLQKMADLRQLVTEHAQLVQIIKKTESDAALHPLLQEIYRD
# method summary: Gene reporter (transactivation) assay, Cos-7 cells transfected with pGal4-hPPARα
# test parameters: GAL4 chimeric hPPARα, 24 h, read-out: hPPAR gene reporter αEC50
Could you please report measured EC50 for the items listed next?
Numbers only, in nM.

CCOC(Cc1ccc(OCCn2c(=O)sc3ccc(C(=O)c4ccccc4)cc32)cc1)C(=O)O (centres unmarked) [Compound 31]: 256
CON=C(c1ccccc1)c1ccc2c(c1)sc(=O)n2CCOc1ccc(C[C@@H](OCC(F)(F)F)C(=O)O)cc1 [Compound 46b]: 1660
CCOC(Cc1ccc(OCCN2C(=O)CSc3ccc(C(=O)c4ccccc4)cc32)cc1)C(=O)O (centres unmarked) [Compound 33]: 10000
CON=C(c1ccccc1)c1ccc2c(c1)sc(=O)n2CCOc1ccc(C[C@H](OCC(F)(F)F)C(=O)O)cc1 [Compound 44b]: 525

Query molecule follows.
Sample CCO[C@@H](Cc1ccc(OCCn2c(=O)sc3cc(/C(=N/OC)c4ccccc4)ccc32)cc1)C(=O)O [Compound 44a] , system: human PPARα (Homo sapiens). Its EC50 is 32

----------
# assay target: human PPARα (Homo sapiens, UniProt Q07869)
# Construct: expressed in transfected cells; host or cells: Cos-7
# method summary: Gene reporter (transactivation) assay, Cos-7 cells transfected with pGal4-hPPARα
# Format: cell-based
# test parameters: COS-7, 24 h, Emax relative to maximum activation with WY14643 (10 µM) = 100%, read-out: hPPAR gene reporter αGal4 (%)
Could you please report measured Emax for the items listed next?

See these solved cases before continuing.
CCOC(Cc1ccc(OCCN2C(=O)Cc3cc(C(=O)c4ccccc4)ccc32)cc1)C(=O)O (stereo not shown) [Compound 37]: 100%
CCOC(Cc1ccc(OCCn2c(=O)sc3cc(C(=O)c4ccccc4)ccc32)cc1)C(=O)O (stereo not shown) [Compound 32a]: ≥ 80%
O=C(O)C(Cc1ccc(OCCn2c(=O)sc3cc(C(=NO)c4ccccc4)ccc32)cc1)OCC(F)(F)F (mixture of isomers) [Compound 39b]: 29%

I need Emax for every entry listed below, if you could help.
1. CCO[C@H](Cc1ccc(OCCn2c(=O)sc3cc(C(=O)c4ccccc4)ccc32)cc1)C(=O)O [Compound 42a]
2. CCO[C@H](Cc1ccc(OCCn2c(=O)sc3cc(/C(=N/O)c4ccccc4)ccc32)cc1)C(=O)O [Compound 45a]
3. CCOC(Cc1ccc(OCCN2C(=O)CSc3cc(C(=O)c4ccccc4)ccc32)cc1)C(=O)O (stereo not shown) [Compound 34]
4. CCOC(Cc1ccc(OCCN2C(=O)CSc3ccc(C(=O)c4ccccc4)cc32)cc1)C(=O)O (stereo not shown) [Compound 33]

Resp:
["0%", "30%", "116%", "≤ 20%"]

----------
# assay target: human PPARα (Homo sapiens, UniProt Q07869)
# Construct: expressed in transfected cells; host or cells: Cos-7
# method summary: Gene reporter (transactivation) assay, Cos-7 cells transfected with pGal4-hPPARα;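 also: luciferase signal from a Gal4-driven reporter normalised to cotransfected β-galactosidase activity, cells exposed to rising compound concentrations with DMSO vehicle as control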
# Format: cell-based
# test parameters: COS-7, 24 h, Emax relative to maximum activation with WY14643 (10 µM) = 100%, read-out: hPPAR gene reporter αGal4 (%)
Could you please report measured Emax for the items listed next?

See these solved cases before continuing.
CCOC(Cc1ccc(OCCn2c(=O)sc3cc(/C(=N/O)c4ccccc4)ccc32)cc1)C(=O)O (stereo not shown) [Compound 39a]: 129%
CCOC(Cc1ccc(OCCN2C(=O)COc3ccc(C(=O)c4ccccc4)cc32)cc1)C(=O)O (stereo not shown) [Compound 35]: 97%
COc1ccc(OC(=O)N(CC(=O)O)Cc2ccc(OCCc3nc(-c4ccccc4)oc3C)cc2)cc1 [mura, Muraglitazar, reference compound]: 84%

Item: CCO[C@@H](Cc1ccc(OCCn2c(=O)sc3cc(/C(=N/OC)c4ccccc4)ccc32)cc1)C(=O)O [Compound 44a] | Emax: 154%

Value source: paper PMC7006651
